Parameter: cytotoxicity at 10 µM. Scope: all listed entries.
- METHOD DESCRIPTION: Toxicity liver stage against HepG2, at 10uM
- Assay type: cell-based
- Parameters: test concentration 10 uM, cell line HepG2-A16-CD81EGFP
- MEASUREMENT PARAMETERS: human, HepG2-A16-CD81EGFP cells; read-out: INHIBITION
Response body: numeric value in %, unit text excluded.

Identify measured cytotoxicity at 10 µM associated with O=c1[nH]nc(CCCN2CCOCC2)n1-c1ccc(F)cc1F
4.54

Identify measured cytotoxicity at 10 µM associated with COc1cnc(N2CCCC(c3ncc[nH]3)C2)nc1 (stereo not drawn)
-0.268

Identify measured cytotoxicity at 10 µM associated with COC1C[C@@H]2CN(C(=O)c3cc4cccc(F)c4[nH]3)C[C@@H]2C1 (stereo partly drawn)
1.51

Identify measured cytotoxicity at 10 µM associated with Cc1cccc(C)c1OC1CN(C(=O)C2CC(=O)N(C(C)(C)C)C2)C1 (stereo not drawn)
0.213

Identify measured cytotoxicity at 10 µM associated with CCNC(=O)C1CCCN1S(=O)(=O)c1sc(=O)[nH]c1C (stereo not drawn)
1.34

Identify measured cytotoxicity at 10 µM associated with CC(O)CN1CCN(C(=O)CN(C)c2ccc(Cl)cn2)CC1 (stereo not drawn)
-1.95

Identify measured cytotoxicity at 10 µM associated with CC(=O)N1CCN(C(=O)c2ccc(Sc3ccccn3)cc2)CC1
10.7

Identify measured cytotoxicity at 10 µM associated with CNS(=O)(=O)CC(=O)N(Cc1c(F)cccc1Cl)C1CC1
4.71

Okay, now this compound:
Identify measured cytotoxicity at 10 µM associated with COc1ccc2c(c1)C(NCCc1ncc(C)s1)CCCO2 (stereo not drawn)
-3.86

Value source: ChEMBL document CHEMBL4513216
